Assay summary: The drug is tested on Ruminococcus gnavus strain: ATCC29149 for biotransformation under anaerobic condition. The drug concentrations were measured over 6 timepoints collected between 0 and 12 hours of incubation by liquid-chromatography-coupled mass spectrometry (LC–MS)
Assay type: ADME
Design: dose 5 uM, timepoint 0, 1.5, 3, 6, 9, 12 hours
Test conditions: mediterraneibacter gnavus, 5 µM
Property: Bacterial Biotransformation

Observe how each entry below is paired with its result.
CCOC(=O)[C@H](CCc1ccccc1)N[C@@H](C)C(=O)N1[C@H](C(=O)O)C[C@@H]2CCC[C@@H]21    Compound NOT metabolized
Cn1cnc([N+](=O)[O-])c1Sc1ncnc2nc[nH]c12    Compound metabolized
C[C@]12C=CC(=O)C=C1CC[C@@H]1[C@@H]2C(=O)C[C@@]2(C)[C@H]1CC[C@]2(O)C(=O)CO    Compound metabolized
NS(=O)(=O)c1cc(C(=O)O)c(NCc2ccco2)cc1Cl [FUROSEMIDE]    Compound NOT metabolized
C[C@]12CCC(=O)C=C1CC[C@@H]1[C@@H]2[C@@H](O)C[C@@]2(C)[C@H]1CC[C@]2(O)C(=O)CO [HYDROCORTISONE]    Compound metabolized

Consider the following items and state reported Bacterial Biotransformation for each.
1. CCOC(=O)C1=C(COCCN)NC(C)=C(C(=O)OC)C1c1ccccc1Cl (stereo not drawn)
2. CO[C@H]1C[C@@H]2CC[C@@H](C)[C@@](O)(O2)C(=O)C(=O)N2CCCC[C@H]2C(=O)O[C@H]([C@H](C)C[C@@H]2CC[C@@H](OCCO)[C@H](OC)C2)CC(=O)[C@H](C)/C=C(\C)[C@@H](O)[C@@H](OC)C(=O)[C@H](C)C[C@H](C)/C=C/C=C/C=C/1C
3. COc1c(C)c2c(c(O)c1C/C=C(\C)CCC(=O)O)C(=O)OC2
4. C[C@H]1C[C@@H]2[C@H]([C@@H](O)C[C@@]3(C)[C@H]2CC[C@]3(O)C(=O)CO)[C@@]2(C)C=CC(=O)C=C12
5. C[C@]12C=CC(=O)C=C1CC[C@@H]1[C@@H]2[C@@H](O)C[C@@]2(C)[C@H]1CC[C@]2(O)C(=O)CO

1: Compound NOT metabolized; 2: Compound NOT metabolized; 3: Compound NOT metabolized; 4: Compound metabolized; 5: Compound metabolized

// input: 3 compounds below; output: Bacterial Biotransformation for each
1. CC(C)NCC(O)COc1ccc(CC(N)=O)cc1 (stereo not drawn)
2. C[C@@H]1C[C@H]2[C@@H]3CCC4=CC(=O)C=C[C@]4(C)[C@@]3(F)[C@@H](O)C[C@]2(C)[C@@]1(O)C(=O)CO
3. CO[C@H]1C[C@@H]2CC[C@@H](C)[C@@](O)(O2)C(=O)C(=O)N2CCCC[C@H]2C(=O)O[C@H]([C@H](C)C[C@@H]2CC[C@@H](O)[C@H](OC)C2)CC(=O)[C@H](C)/C=C(\C)[C@@H](O)[C@@H](OC)C(=O)[C@H](C)C[C@H](C)/C=C/C=C/C=C/1C

["Compound NOT metabolized", "Compound NOT metabolized", "Compound NOT metabolized"]
